System Under Test: T1, human plasma kallikrein (human, UniProt P03952 20-390; P03952 391-638)
T1 construct: two disulfide linked chains; also called pKal; human pKal
T1 sequence (P03952 20-390, chain 1 of 2): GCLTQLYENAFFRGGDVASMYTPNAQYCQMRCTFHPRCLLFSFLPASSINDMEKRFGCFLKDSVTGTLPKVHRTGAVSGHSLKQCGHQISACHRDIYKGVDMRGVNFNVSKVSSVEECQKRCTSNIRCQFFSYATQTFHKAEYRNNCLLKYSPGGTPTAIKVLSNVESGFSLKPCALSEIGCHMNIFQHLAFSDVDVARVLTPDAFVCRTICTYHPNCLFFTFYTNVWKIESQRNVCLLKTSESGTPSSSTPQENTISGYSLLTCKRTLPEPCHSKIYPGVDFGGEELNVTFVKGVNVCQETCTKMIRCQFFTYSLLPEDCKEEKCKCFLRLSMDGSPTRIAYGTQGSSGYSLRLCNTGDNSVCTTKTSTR
T1 sequence (P03952 391-638, chain 2 of 2): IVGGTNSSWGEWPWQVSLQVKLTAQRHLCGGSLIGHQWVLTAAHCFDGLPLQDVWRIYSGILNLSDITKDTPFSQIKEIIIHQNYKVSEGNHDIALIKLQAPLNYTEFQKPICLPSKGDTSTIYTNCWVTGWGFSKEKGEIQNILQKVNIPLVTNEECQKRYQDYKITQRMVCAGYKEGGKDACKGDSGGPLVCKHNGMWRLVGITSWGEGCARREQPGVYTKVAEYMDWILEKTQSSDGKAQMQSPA
Measurement Description: Ki,app as an IgG, steady state enzyme kinetics, inhibition of human pKal
Reported Property: Ki

{"columns": ["Binder", "Ki"],
 "data": [
  ["X67-B03 (IgG) (antibody, V domains shown, printed HC runs into CH1) VH: EVQLLESGGGLVQPGGSLRLSCAASGFTFSAYSMIWVRQAPGKGLEWVSYIRPSGGRTTYADSVKGRFTISRDNSKNTLYLQMNSLRAEDTAVYYCARGGLLLWSRELKSNYFDYWGQGTLVTVSS VL: DIQMTQSPSSLSAFVGDRVTITCRASQPIDNYLNWYHQKPGKAPKLLIYAASRLQSGVPSRLSGSGFGTDFTLTISSLQPEDFGNYYCQQSYTVPYTFGGGTKVEIR", "2.1 nM"]
]}

Kindly consider the entry below.
Input line: So what's the measured Ki for this one? X67-H04 (IgG) (antibody, V domains shown, printed HC runs into CH1; also called 559A-X67-H04) VH: EVQLLESGGGLVQPGGSLRLSCAASGFTFSAYSMIWVRQAPGKGLEWVSYIRPSGGRTTYADSVKGRFTISRDNSKNTLYLQMNSLRAEDTAVYYCARGGLLLWERELKSNYFDYWGQGTLVTVSS VL: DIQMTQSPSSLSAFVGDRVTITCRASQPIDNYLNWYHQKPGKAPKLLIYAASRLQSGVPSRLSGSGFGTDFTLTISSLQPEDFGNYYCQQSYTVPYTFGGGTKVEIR
Output line: 3.6 nM
